Hello, the source for this data is ChEMBL document CHEMBL5303304, in case you need it.

Tested on: Fibroblast
experimental_details: Incucyte cell viability with human fibroblast; note: unitless GR value; below 1 slowed growth and below 0 cell loss
Assay type: toxicity, cell-based
study_conditions: 6 h, 10 µM, compound concentration 10 uM, replicate number 2
Please respond with rule met when measured Growth Rate is strictly beneath 0.1, and with rule not met in all other cases.

Solved cases (5 shown):
{"columns": ["compound", "measured_on", "group_label"],
 "data": [
  ["COc1c(C(=O)/C=C/c2ccccc2)c(O)c(OC)c2occc12", "Fibroblast", "rule met"],
  ["CNC(=O)c1ccc(C)c(-n2c(C)cc(OCc3ccc(F)cc3F)c(Br)c2=O)c1", "Fibroblast", "rule not met"],
  ["Cc1cccc(CC(=O)N2CCc3c2ccc(-c2cn(C)c4ncnc(N)c24)c3F)n1", "Fibroblast", "rule not met"],
  ["COc1ccc(CSc2nnc(-c3ccc4ncsc4c3)o2)cc1C(F)(F)F", "Fibroblast", "rule not met"],
  ["C=CC(=O)Nc1cc(-c2nn(C3CCC(N4CCN(C(C)=O)CC4)CC3)c3ncnc(N)c23)ccc1Oc1ccccc1 (centres undefined)", "Fibroblast", "rule met"]
]}

Problem: Check if Growth Rate falls below 0.1 for `CN(C)CCCNc1ccnc(Nc2cccc(Cl)c2)n1` .
Result: rule met

Problem: Queued: `C[C@@H]1COCCN1c1cc(=O)n2c(n1)N(Cc1cncc(Cl)c1)[C@H](C(F)(F)F)CC2`
Result: rule met

Problem: Moving on to `C[C@]12CC[C@H](O)CC1=CC[C@@H]1[C@@H]2CC[C@]2(C)C(n3cnc4ccccc43)=CC[C@@H]12`
Result: rule met

###

Kindly supply the reported Growth Rate values for the records listed here.
System: HEK-293T
experimental_details: Incucyte cell viability with HEK293T; note: unitless GR value; below 1 slowed growth and below 0 cell loss
Format: toxicity, cell-based
study_conditions: human, 0 h, 10 µM, compound concentration 10 uM, replicate number 1
Answers are plain numbers.

Some entries whose results are on file:
{"columns": ["molecule", "recorded_measurement"],
 "data": [
  ["COCc1c(-c2cc3cc(C)cc(OC)c3s2)c2c(N)ncnn2c1CN[C@@H]1CCNC1=O", -0.25],
  ["CO[C@H](C)CN1CC[C@@]2(C)c3ccc(O)cc3C[C@@H]1C2(C)C.Cl", 0.75],
  ["C[C@@H]1C[C@H](C)CN(c2ncc(Cl)c(Nc3ccc4c(c3)cc(OC(C)(C)C(=O)O)c(=O)n4C)n2)C1", 0.98],
  ["O=C(O)Cc1cc(I)c(Oc2ccc(O)c(I)c2)c(I)c1", 0.25],
  ["C1=Cc2ccccc2C(=C2CCN(CCCCc3nn[nH]n3)CC2)c2ccccc21", 0.42],
  ["CCOC(=O)c1cc2cc(-c3cc(C(=O)NCc4ccc(C(=O)O)cc4)nn3C)ccc2[nH]1", 0.13],
  ["Cc1nc2ccc(Cl)cc2c(-c2ccccc2)c1CC(=O)O.Cl", 0.38],
  ["Cl.O=C1c2cccc3c2[C@H](CCC3)CN1[C@@H]1CN2CCC1CC2 [PALONOSETRON HYDROCHLORIDE]", 0.61]
]}

Next, consider the following molecule.
Problem: Under HEK-293T: Growth Rate value of `Cn1cc(-n2cnc3c(NCc4nc5cc(Cl)c(Cl)cc5[nH]4)nc(N4CCOCC4)nc32)cn1` ?
Result: -0.86

###

Give Growth Rate for every item shown.
Tested on: U2OS
experimental_details: Incucyte cell viability with U2OS; note: unitless GR value; below 1 slowed growth and below 0 cell loss
Format: toxicity, cell-based
study_conditions: human, 12 h, 10 µM, compound concentration 10 uM, replicate number 1
Answers are plain numbers.

Some molecules with recorded Growth Rate:
{"columns": ["molecule", "measured_on", "Growth Rate"],
 "data": [
  ["CC(=O)Nc1nc2c(Oc3cc(-c4ccc(C(F)(F)F)cc4)ncn3)cccc2s1", "U2OS", 0.8],
  ["N#Cc1ccc(COc2ccc(Br)cc2CNCCO)cn1.O=CO", "U2OS", 1],
  ["CNc1nc(-c2cc(C(=O)N3CCN(Cc4ccc(Cl)cc4)CC3)c(Cl)cn2)cs1", "U2OS", 0.1],
  ["COc1cc2nc(C)nc(NC3(c4ccccc4)CC3)c2cc1OC", "U2OS", 0.94],
  ["Cn1c(SCc2ccc(C(C)(C)C)cc2)nc(N)cc1=O", "U2OS", 0.86]
]}

Look up Growth Rate for the entries below, preserving their order.
1. CCS(=O)(=O)Nc1cccc(Oc2cc(F)cc(Nc3ccc(I)cc3F)c2NS(=O)(=O)C2CC2)c1
2. NC(=O)C1CCCc2c1[nH]c1ccc(Cl)cc21 (stereo not given)
3. Cc1ccc(S(=O)(=O)O)cc1.Cn1cc(Nc2nccc(N3CC4CCC(C3)N4C(=O)[C@@H]3CC3(F)F)n2)cn1
4. COCc1nc2cnc3cc(-c4c(C)noc4C)c(OC[C@H]4CCNC4)cc3c2n1[C@H](C)c1ccccc1
5. c1cc(-c2cnn3cc(-c4ccc(N5CCNCC5)cc4)cnc23)c2cccnc2c1
6. c1ccc2c(-c3coc4cc(-c5ccc(N6CCNCC6)cc5)cnc34)ccnc2c1

Result:
[0.89, 1, -0.28, -0.64, -0.69, 0.59]

# per-item lookup of Growth Rate; items listed below
1. CC[C@@H]1C(=O)N(C)c2cnc(Nc3ccc(C(=O)NC4CCN(C)CC4)cc3OC)nc2N1C1CCCC1
2. C[C@@H](Oc1cc(-n2cnc3ccc(OC4CCN(C)CC4)cc32)sc1C(N)=O)c1ccccc1Cl [GSK-579289A]
3. Cc1ccc(-c2c(C(=O)CF)n(CCCO)c3ncnc(N)c23)cc1
4. CN(Cc1cccc(F)c1CNc1cc(F)c(S(=O)(=O)Nc2cscn2)c(F)c1)C(C)(C)C
5. CC(C)(C)OC(=O)CN1C(=O)c2c(OCC(=O)O)cccc2Oc2ccc(C(F)(F)F)cc21
6. CCN(C)S(=O)(=O)Nc1cccc(-c2ccc3c(NC(=O)C4CC4)n[nH]c3c2)c1
7. Cn1c(C2(NC(=O)c3ccc4c(C5CCCC5)c(-c5ncc(Br)cn5)n(C)c4c3)CCC2)nc2ccc(/C=C/C(=O)O)cc21

Result:
1. 0.69
2. 0.83
3. 0.92
4. 0.72
5. 0.85
6. -0.32
7. 0.44

Would you mind listing Growth Rate for each of the following molecules?
1. CN1C(=O)c2ccccc2N(C)c2nc(Nc3cnn(C4CCNCC4)c3)ncc21
2. COc1c(-c2cn(C3CCC(=O)NC3=O)nn2)csc1C(=O)N1CCCC1 (stereo not given)

Result:
0.07
0.85

Kindly give each listed record's Growth Rate.
1. Cl.Clc1ccc(OC[C@H]2CCN2)cn1
2. CC(C)S(=O)(=O)c1ccccc1Nc1nc(N[C@@H]2CCCN(CCCCCCCNC(=O)COc3cccc4c3C(=O)N(C3CCC(=O)NC3=O)C4=O)C2)ncc1Cl (stereo not given in full)
3. CN1CCN([C@H]2CC[C@@H](n3cc(-c4ccc(Oc5ccccc5)cc4)c4c(N)ncnc43)CC2)CC1
4. CS(=O)(=O)c1ccc(-c2cnc(N)c(C(=O)Nc3ccccc3)n2)cc1
5. N=C(N)NCCC[C@@H](NC(=O)C(c1ccccc1)c1ccccc1)C(=O)NCc1ccc(CNC(N)=O)cc1.O=C(O)C(F)(F)F
6. COc1cc(-c2nn([C@H]3CC[C@H](N4CCN(C(C)=O)CC4)CC3)c3ncnc(N)c23)ccc1NC(=O)c1cc2ccccc2n1C

Result:
1. 0.58
2. 0.25
3. -0.26
4. 0.87
5. 0.7
6. 0.44
